Recorded values, source patent US20240124597A1.

- testedOn: T1, human-CD40-monomer protein (human, UniProt P25942 21-193, limits assumed)
- T1 construct: Soluble monomer generated in house, used as SPR analyte; also called hCD40; hCD40-monomer
- protocolSummary: SPR, Ab captured on protein A, hCD40 monomer 500 and 50 nM, 1:1 fit; supernatant
Lab note: anything with Kd below 4 nM is marked TRUE; values at 4 nM or higher are marked FALSE.

Given the entry Y12XX-hz18 (antibody, human IgG1, kappa, V domains shown, Humanized, IgG1-P238K; supernatant sample) VH: QVQLVQSGAEVKKPGSSVKVSCKASGYAFTSYWMHWVRQAPGQGLEWMGYINPTTGYSAYNQKFKDKATLTADKSTSTAYMELSSLRSEDTAVYYCARWDPRPFAYWGQGTLVTVSS VL: DIQMTQSPSFLSASVGDRVTITCKASQDVSTAVAWYQQKPGKAPKLLIYSASYRYTGVPSRFSGSGSGTDFTLTISSLQPEDFATYYCQQHYSTPWTFGGGTKVEIKR , would its reported Kd be below 4 nM?
FALSE

Input Y12XX-hz37 (antibody, human IgG1, kappa, V domains shown, Humanized, IgG1-P238K; supernatant sample) VH: QVQLVQSGAEVKKPGSSVKVSCKASGYAFTSYWMHWVRQAPGQGLEWMGQINPSNGRSQYNEKFKTRVTITADKSTSTAYMELSSLRSEDTAVYYCARWGLQPFAYWGQGTLVTVSS VL: EIVMTQSPATLSVSPGERATLSCKASQDVSTAVAWYQQKPGQAPRLLIYSASYRYTGIPARFSGSGSGTEFTLTISSLQSEDFAVYYCQQHYSTPWTFGGGTKVEIKR ; condition: Kd strictly below 4 nM. Does it hold?
TRUE

For Y12XX-hz34 (antibody, human IgG1, kappa, V domains shown, Humanized, IgG1-P238K; supernatant sample) VH: QVQLVQSGAEVKKPGSSVKVSCKASGYAFTSYWMHWVRQRPGQGLEWIGYINPTTGYSAYNQKFKDKATLTADKSTSTAYMELNSLRSEDTAVYYCARWDPRPFAYWGQGTLVTVSS VL: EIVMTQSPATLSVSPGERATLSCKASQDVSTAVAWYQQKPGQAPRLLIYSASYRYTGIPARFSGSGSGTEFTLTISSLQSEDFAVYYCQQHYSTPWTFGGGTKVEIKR , is the recorded Kd below the cut-off of 4 nM?
FALSE

Quick check: Kd of Y12XX-hz29 (antibody, human IgG1, kappa, V domains shown, Humanized, IgG1-P238K; supernatant sample) VH: QVQLVQSGAEVKKPGSSVKVSCKASGYAFTSYWMHWVRQAPGQGLEWMGFINPTTGYSEYNQKFKDRVTITADKSTSTAYMELSSLRSEDTAVYYCARWGLPPFAYWGQGTLVTVSS VL: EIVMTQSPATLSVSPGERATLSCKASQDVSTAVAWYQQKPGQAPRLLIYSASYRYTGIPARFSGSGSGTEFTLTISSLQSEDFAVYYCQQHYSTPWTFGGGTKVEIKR under 4 nM?
TRUE

Please state whether Kd is below 4 nM for Y12XX-hz40-P238K (antibody, human IgG1, kappa, V domains shown, also called Vh-hz12;Vk-hz3) VH: QVQLVQSGAEVKKPGSSVKVSCKASGYAFTSYWMHWVRQAPGQGLEWMGQINPSQGRSQYNEKFKTRVTITADKSTSTAYMELSSLRSEDTAVYYCARWGLQPFAYWGQGTLVTVSS VL: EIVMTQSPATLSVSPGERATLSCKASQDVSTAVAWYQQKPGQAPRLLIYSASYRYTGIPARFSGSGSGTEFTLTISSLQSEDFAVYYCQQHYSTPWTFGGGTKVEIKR
FALSE

Answer whether the binder Y12XX-hz26 (antibody, human IgG1, kappa, V domains shown, Humanized, IgG1-P238K; supernatant sample) VH: QVQLVQSGAEVKKPGSSVKVSCKASGYAFTSYWMHWVRQAPGQGLEWMGQINPSQGRSQYNEKFKTRVTITADKSTSTAYMELSSLRSEDTAVYYCARWGLQPFAYWGQGTLVTVSS VL: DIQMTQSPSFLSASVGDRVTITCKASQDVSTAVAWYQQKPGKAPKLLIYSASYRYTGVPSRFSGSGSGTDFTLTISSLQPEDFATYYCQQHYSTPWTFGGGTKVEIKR has Kd strictly less than 4 nM
FALSE

Is Kd strictly under 4 nM for the entry Y12XX-hz38 (antibody, human IgG1, kappa, V domains shown, Humanized, IgG1-P238K; supernatant sample) VH: QVQLVQSGAEVKKPGSSVKVSCKASGYAFTSYWMHWVRQRPGQGLEWMGQINPSNGRSQYNEKFKTRVTITADKSTSTAYMELSSLRSEDTAVYYCARWGLQPFAYWGQGTLVTVSS VL: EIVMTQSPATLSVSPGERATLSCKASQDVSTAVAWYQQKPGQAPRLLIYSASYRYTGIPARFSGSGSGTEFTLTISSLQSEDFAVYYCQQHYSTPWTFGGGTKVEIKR ?
TRUE

Hi there! Is Kd for Y12XX-hz15 (antibody, human IgG1, kappa, V domains shown, Humanized, IgG1-P238K; supernatant sample) VH: QVQLVQSGAEVKKPGSSVKVSCKASGYAFTSYWMHWVRQAPGQGLEWMGFINPTTGYSEYNQKFKDRVTITADKSTSTAYMELSSLRSEDTAVYYCARWGLPPFAYWGQGTLVTVSS VL: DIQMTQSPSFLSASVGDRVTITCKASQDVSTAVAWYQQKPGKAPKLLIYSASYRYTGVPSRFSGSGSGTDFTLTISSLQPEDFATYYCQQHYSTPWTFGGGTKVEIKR below 4 nM, do you know?
FALSE

Dear colleague, could you confirm whether Kd of Y12XX-hz36 (antibody, human IgG1, kappa, V domains shown, Humanized, IgG1-P238K; supernatant sample) VH: QVQLVQSGAEVKKPGSSVKVSCKASGYAFTSYWMHWVRQAPGQGLEWMGYINPTTGYSAYNQKFKDKATLTADKSTSTAYMELSSLRSEDTAVYYCARWDARPFAYWGQGTLVTVSS VL: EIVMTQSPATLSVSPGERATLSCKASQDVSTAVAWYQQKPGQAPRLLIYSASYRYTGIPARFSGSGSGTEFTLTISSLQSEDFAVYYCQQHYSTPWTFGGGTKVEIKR falls below 4 nM? Thanks.
FALSE
